- Tested on: CHO cells expressing the hERG ion channel
- Experimental details: Thallium influx assay of cells expressing the hERG potassium ion channel, loaded with thallium ion indicator
- Format: cell-based
- Assay setup: dye loading concentration 1 μM; loaded 60 minutes; excitation 470-500 nm, emission 520-540 nm; final thallium 2 mM, potassium 10 mM
Measured metric: Fold Increase Over Baseline (fluorogenic response) (fold)

Structure smiles string: COc1cc(NC(=O)c2ccc3c(c2)C(=O)OC32c3cc(F)c(OC(C)=O)cc3Oc3cc(OC(C)=O)c(F)cc32)ccc1N(CC(=O)OCOC(C)=O)CC(=O)OCOC(C)=O
Result unit: fold
Value measured: 3.4

Structure smiles string: COc1ccc(NC(=O)c2ccc3c(c2)C2(OC3=O)c3ccc(OC(C)=O)cc3Oc3cc(OC(C)=O)ccc32)cc1N(CC(=O)OCOC(C)=O)CC(=O)OCOC(C)=O
Result unit: fold
Value measured: 1.1

Structure smiles string: COc1ccc(NC(=O)c2ccc3c(c2)C2(OC3=O)c3cc(F)c(OC(C)=O)cc3Oc3cc(OC(C)=O)c(F)cc32)cc1N(CC(=O)OCOC(C)=O)CC(=O)OCOC(C)=O
Result unit: fold
Value measured: 1.5

Structure smiles string: COc1ccc(NC(=O)c2ccc3c(c2)C(=O)OC32c3ccc(OC(C)=O)cc3Oc3cc(OC(C)=O)ccc32)cc1N(CC(=O)OCOC(C)=O)CC(=O)OCOC(C)=O
Result unit: fold
Value measured: 1.2

Structure smiles string: COc1cc(NC(=O)c2ccc3c(c2)C2(OC3=O)c3ccc(OC(C)=O)cc3Oc3cc(OC(C)=O)ccc32)ccc1N(CC(=O)OCOC(C)=O)CC(=O)OCOC(C)=O
Result unit: fold
Value measured: 3.7

---

The entries below are paired with their reported Fold Increase Over Baseline (fluorogenic response).
- Tested on: CHO cells expressing the hERG ion channel
- Experimental details: Thallium influx assay of cells expressing the hERG potassium ion channel, loaded with thallium ion indicator
- Format: cell-based
- Assay setup: dye loading concentration 2 μM; loaded 60 minutes; excitation 470-500 nm, emission 520-540 nm; final thallium 2 mM, potassium 10 mM
Measured metric: Fold Increase Over Baseline (fluorogenic response) (fold)

Molecule: COc1cc(NC(=O)c2ccc3c(c2)C2(OC3=O)c3ccc(OC(C)=O)cc3Oc3cc(OC(C)=O)ccc32)ccc1N(CC(=O)OCOC(C)=O)CC(=O)OCOC(C)=O [Compound 6]
Result unit: fold
Value measured: 2.8

Molecule: COc1ccc(NC(=O)c2ccc3c(c2)C2(OC3=O)c3cc(F)c(OC(C)=O)cc3Oc3cc(OC(C)=O)c(F)cc32)cc1N(CC(=O)OCOC(C)=O)CC(=O)OCOC(C)=O [Compound 4]
Result unit: fold
Value measured: 1.4

Molecule: COc1cc(NC(=O)c2ccc3c(c2)C(=O)OC32c3ccc(OC(C)=O)cc3Oc3cc(OC(C)=O)ccc32)ccc1N(CC(=O)OCOC(C)=O)CC(=O)OCOC(C)=O [Compound 5]
Result unit: fold
Value measured: 3.1

Molecule: COc1cc(NC(=O)c2ccc3c(c2)C(=O)OC32c3cc(F)c(OC(C)=O)cc3Oc3cc(OC(C)=O)c(F)cc32)ccc1N(CC(=O)OCOC(C)=O)CC(=O)OCOC(C)=O [Compound 8]
Result unit: fold
Value measured: 3.4

Molecule: COc1ccc(NC(=O)c2ccc3c(c2)C(=O)OC32c3cc(F)c(OC(C)=O)cc3Oc3cc(OC(C)=O)c(F)cc32)cc1N(CC(=O)OCOC(C)=O)CC(=O)OCOC(C)=O [Compound 9]
Result unit: fold
Value measured: 2.0
